protocol: qHTS Assay for inhibitors of the human cytomegalovirus (HCMV); note: % is set by controls: 0 for no effect and ±100 for the full control effect
conditions: HFF cells, HCMV-luciferase reporter, 72 h; at 57.5 µM; hits give low values
The campaign covered roughly 410,000 compounds. About 18,000 (4.4%) were called active. Not shown: some 7% with an inconclusive outcome. Shown is part of a subset that was picked to be rich in actives.
Each record here notes measured activity change, negative = inhibition.
Write the value in % as a bare number.

Cc1oc(C)c2c(=O)cc(-c3ccc4c(c3)OCO4)cc(OC(=O)c3ccc(Cl)cc3)c12    8.11

Q: Requested read-out: activity change, negative = inhibition. Entry: `COc1cccc(CNC(=O)[C@@H]2CCCN2C(=O)[C@@H]2CCCN2C(=O)c2ccccc2)c1`
Ans: -2.63

Q: Next record, please: Cc1cc(N2C(=O)C(=O)/C(=C(/O)c3ccccc3)C2c2cccc(Br)c2)no1 (stereo not given)
Ans: -20.6

Q: Can you check `Cc1cc(NC(=O)/C=C/C(=O)N(CC(=O)NC2CCCC2)c2ccc(F)cc2)no1` next?
Ans: 29.1

Q: Please answer likewise for `CCCCC(O)(CCCC)C(=O)NN(C(=O)CCl)c1ccccc1`
Ans: -94.6

* * *

protocol: qHTS Assay for inhibitors of the human cytomegalovirus (HCMV); note: % is set by controls: 0 for no effect and ±100 for the full control effect
conditions: HFF cells, HCMV-luciferase reporter, 72 h; at 57.5 µM; hits give low values
Out of some 410,000 compounds screened, about 18,000 (4.4%) were called active. Inconclusive results (about 7%) are left out. What follows is part of a selection rich in actives, with near analogues and random picks from the rest.
Documented activity change, negative = inhibition across a set of compounds
I only need the number, in %, no unit after it.

COc1ccc(C(=O)Nc2ccc(-n3nncc3-c3ccccc3)cc2)cc1OC    -6.64
Cc1ccc(-n2cnc3cc(C(=O)NCCC4=CCCCC4)ccc32)cc1Cl    -19.6
COc1cc(C(=O)NCC(c2ccc(Cl)cc2)N2CCOCC2)cc(OC)c1OC (stereo not given)    3.59
COc1cccc(C(=O)Nc2ccc(-c3cc(C(F)(F)F)nn3-c3ccccc3)cc2)c1    -87.7

We next turn to a different compound, shown below.
Q: // query activity change, negative = inhibition value for entry `CCOc1ccccc1CNC(=O)c1cnc2c(-c3ccc(OCC)c(OCC)c3)c(C)nn2c1C`
Ans: -3.31

* * *

// reported activity change, negative = inhibition for each item listed
protocol: qHTS Assay for inhibitors of the human cytomegalovirus (HCMV); note: % is set by controls: 0 for no effect and ±100 for the full control effect
conditions: HFF cells, HCMV-luciferase reporter, 72 h; at 57.5 µM; hits give low values
Among all 410,000 compounds or so, about 18,000 (4.4%) were called active. Not shown: some 7% with an inconclusive outcome. The sample as a whole holds a higher share of actives than the screen did.
Numbers only; they are read as %.

Cc1ccc(Cl)cc1N1CCN(C(=O)CN2C(=O)COc3ccc(S(=O)(=O)N4CCOCC4)cc32)CC1    6.7
COC(=O)c1ccc(NC(=O)c2cc(S(=O)(=O)N3CCC(C)CC3)cn2C)cc1    -7.89
Cc1cc2c(cc3c(SCc4nc(-c5ccccc5)oc4C)nnc(C)n32)o1    -3.85
CSc1ccccc1NC(=O)CCS(=O)(=O)c1nc(-c2cccs2)cc(C(F)(F)F)n1    3.11

Next up:
Q: Request the reported activity change, negative = inhibition associated with `COc1ccccc1-c1cc(C(F)(F)F)nc(S(=O)(=O)CCCC(=O)Nc2cc(C)ccc2O)n1`
Ans: 7.44
